Where do these numbers come from? They come from the CATMoS acute toxicity set (Mansouri et al. 2021).

testName: GHS categories as the set defines them, by LD50: 1 up to 5, 2 up to 50, 3 up to 300, 4 up to 2000, 5 above 2000 mg/kg
condition: rat; in vivo; po
# GHS category listing for each entry below
Reply with the value as a number alone.

// worked examples, GHS category included
1. CCOc1ccc(OC)cc1-c1nc(=O)c2cc(C(=O)O)ccc2[nH]1: 4
2. C=CCCCCCCCCC=O: 5
3. CCCCCCCCC=CCCCCCCCC(=O)OC(C)C: 5

**Query** For C[C@]12C[C@@H](O)[C@H]3[C@@H](CCC4=CC(=O)CC[C@@H]43)[C@@H]1CCC2=O , write its GHS category.
**Result** 4
